Read-out: Lipase C (LIPC), LIPC (gene 3990)
test.protocol: LTEA_HepaRG_LIPC: Life Technologies and Expression Analysis (LTEA) Assay for Lipase C (LIPC) using HepaRG (AID 2283514)
assay.setup: mRNA level, 48 h; actives raise or lower the signal
Activity calls are given as the source filed them. How the source made its calls: active means hit-call score of the fitted dose curve at least 0.9, where 1 is the maximum; inactive means score below 0.9.
readout: AC50

Consider the worked cases shown below.
[
  {
    "molecule": "CCCCC(CC)COC(=O)CC(C(=O)OCC(CC)CCCC)S(=O)(=O)O (configuration not stated)",
    "AC50": "inactive"
  },
  {
    "molecule": "CN1CCCC1=O",
    "AC50": "inactive"
  },
  {
    "molecule": "O=c1c(O)c(-c2ccc(O)c(O)c2)oc2cc(O)cc(O)c12",
    "AC50": "80.5 µM (active)"
  },
  {
    "molecule": "CNCc1cc(F)ccc1Oc1ccc(Cl)c(Cl)c1",
    "AC50": "inactive"
  },
  {
    "molecule": "CCCCCCCCCCCCCCCCCC(=O)O",
    "AC50": "inactive"
  }
]

List reported AC50 for each of these molecules:
1. CCOC(=O)CCC(=O)OCC
2. CC1(C)CC(N=C=O)CC(C)(CN=C=O)C1 (configuration not stated)

Result:
1. inactive
2. inactive
